All figures here come from paper PMC8763382.

Molecular target: S. aureus SrtA (Staphylococcus aureus)
Construct: His tag (inferred from IMAC on a HisTrap column); made in house; host or cells: E. coli BL21 Gold (DE3)
Test: fluorometric enzyme assay of SrtA transpeptidation (Abz-LPETG-Dap(Dnp)-OH substrate)
Type: biochemical
Conditions: second-order rate of inhibition; Tris pH 7.50; n. i. = <20% inhibition at 100 µM
MEASURED_QUANTITY: k 2nd

INSERT INTO results (molecule, measured_quantity, measured) VALUES
  ('CS(=O)(=O)c1ncc(Cl)c(C(=O)Nc2ccc(Oc3ccccc3)cc2)n1 [Compound 6h]', 'k 2nd', 'n. i.'),
  ('CS(=O)(=O)c1ncc(Br)c(C(=O)Nc2cccc(Oc3ccccc3)c2)n1 [Compound 7b]', 'k 2nd', '13,998 ± 1,462 M^−1min^−1'),
  ('CS(=O)(=O)c1ncc(Br)c(C(=O)Nc2cccc(C(=O)c3ccccc3)c2)n1 [Compound 7a]', 'k 2nd', '28,185 ± 2,117 M^−1min^−1'),
  ('CS(=O)(=O)c1ncc(Cl)c(C(=O)N(Cc2ccccc2)Cc2ccccc2)n1 [Compound 5k]', 'k 2nd', 'n. i.');

# next molecule below
Which k 2nd value belongs to CS(=O)(=O)c1ncc(Cl)c(C(=O)NCCSc2ccccc2)n1 [Compound 6n] ?
n. i.

* * *

Target: S. aureus SrtA (Staphylococcus aureus, UniProt Q2FV99)
Construct: His tag (inferred from IMAC on a HisTrap column); made in house; host or cells: E. coli BL21 Gold (DE3)
Sequence (Q2FV99 60-206): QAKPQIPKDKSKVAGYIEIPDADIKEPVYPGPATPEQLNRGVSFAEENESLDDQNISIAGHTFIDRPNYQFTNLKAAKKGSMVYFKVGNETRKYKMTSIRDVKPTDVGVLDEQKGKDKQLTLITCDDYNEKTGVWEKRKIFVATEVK
Assay: fluorometric enzyme assay of SrtA transpeptidation (Abz-LPETG-Dap(Dnp)-OH substrate)
Type: biochemical
Conditions: maximum inactivation rate; Tris pH 7.50; n. i. = <20% inhibition at 100 µM
Note to self: values exactly at 0.006 s⁻¹ are condition met. So k inact at or above 0.006 s⁻¹ is condition met, below is condition not met.

# example entries with known answers
INSERT INTO assay_data (compound, qualitative_label) VALUES
  ('CS(=O)(=O)c1ncc(Br)c(C(=O)Nc2cccc(C(=O)c3ccccc3)c2)n1', 'condition met'),
  ('CS(=O)(=O)c1ncc(Cl)c(C(=O)Nc2cccc(OC3CCCCC3)c2)n1', 'condition met'),
  ('CS(=O)(=O)c1ncc(Cl)c(C(=O)NCC(=O)Nc2cccc(Oc3ccccc3)c2)n1', 'condition not met'),
  ('CS(=O)(=O)c1ncc(Cl)c(C(=O)Nc2cccc(C(=O)c3ccccc3)c2)n1', 'condition met');

Next, consider the following molecule.
Check if k inact >= 0.006 s⁻¹ (inclusive). Item: CS(=O)(=O)c1ncc(Br)c(C(=O)Nc2cccc(Oc3ccccc3)c2)n1
condition met

* * *

MEASURED_QUANTITY: melting point (°C)
Form entry: value (°C) — number only.

Answered examples (8):
INSERT INTO measurements (compound, measured) VALUES
  ('CS(=O)(=O)c1ncc(Cl)c(C(=O)Nc2ccc3c(c2)oc2ccccc23)n1', 250),
  ('CS(=O)(=O)c1nc(Cl)cc(NC(=O)c2ccccc2Oc2ccccc2)n1', 184),
  ('CS(=O)(=O)c1ncc(Cl)c(C(=O)Nc2cccc(Cc3ccccc3)c2)n1', 148),
  ('CS(=O)(=O)c1ncc(Cl)c(C(=O)N2CCc3ccccc3C2)n1', 218),
  ('CS(=O)(=O)c1ncc(Cl)c(C(=O)Nc2ccc(Oc3ccccc3)cc2)n1', 195),
  ('CS(=O)(=O)c1ncc(Cl)c(C(=O)NCC(=O)Nc2cccc(Oc3ccccc3)c2)n1', 91),
  ('CS(=O)(=O)c1ncc(Cl)c(C(=O)Nc2ccc3[nH]ncc3c2)n1', 231),
  ('CS(=O)(=O)c1ncc(Cl)c(C(=O)Nc2cccc(OC3CCCCC3)c2)n1', 144);

# next compound below
Which melting point value belongs to CCC(CC)NC(=O)c1nc(S(C)(=O)=O)ncc1Cl ?
146

* * *

Each entry below carries its recorded melting point.
Form entry: value (°C) — number only.

Answered examples (7):
INSERT INTO assay_data (compound, measured) VALUES
  ('CS(=O)(=O)c1ncc(Cl)c(C(=O)Nc2cccc(C(=O)c3ccccc3)c2)n1', 175),
  ('CS(=O)(=O)c1ncc(Cl)c(C(=O)Nc2cccc(Sc3ccccc3)c2)n1', 135),
  ('CS(=O)(=O)c1ncc(Cl)c(C(=O)Nc2cccc(Oc3ccccc3)c2)n1', 156),
  ('CS(=O)(=O)c1ncc(Cl)c(C(=O)Nc2cccc(C(=O)Nc3ccccc3)c2)n1', 237),
  ('CS(=O)(=O)c1ncc(Cl)c(C(=O)N(Cc2ccccc2)Cc2ccccc2)n1', 68),
  ('CS(=O)(=O)c1ncc(Br)c(C(=O)Nc2cccc(Oc3ccccc3)c2)n1', 153),
  ('CS(=O)(=O)c1ncc(Cl)c(C(=O)Nc2cccc(OCc3ccccc3)c2)n1', 154);

Which melting point value belongs to CS(=O)(=O)c1ncc(Cl)c(C(=O)Nc2cccc(-c3ccccc3)c2)n1 ?
164

* * *

Each entry below carries its recorded inhibition at 100 µM.
Biological target: NS2B-NS3 from Zika virus (ZIKV) (Zika virus, UniProt Q32ZE1)
Construct: The ZIKV NS2B/NS3 protease is a serine protease and contains two non-catalytic cysteine residues
Sequence (Q32ZE1 1499-1676): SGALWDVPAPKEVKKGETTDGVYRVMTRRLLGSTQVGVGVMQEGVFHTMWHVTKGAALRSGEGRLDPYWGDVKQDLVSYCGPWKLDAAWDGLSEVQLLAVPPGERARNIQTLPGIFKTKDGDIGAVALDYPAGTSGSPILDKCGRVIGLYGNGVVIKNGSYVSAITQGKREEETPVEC
Sequence (Q32ZE1 1421-1460): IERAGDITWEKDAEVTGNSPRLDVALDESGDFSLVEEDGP
Assay: protease selectivity panel, fluorometric assay ZIKV NS2B/NS3 protease
Format: biochemical
Details: 100 µM inhibitor; read-out: ZIKV inhibition relative to the DMSO control
Form entry: value (%) — number only.

Which inhibition at 100 µM value belongs to CS(=O)(=O)c1ncc(Br)c(C(=O)Nc2cccc(Oc3ccccc3)c2)n1 [Compound 7b] ?
18.3

Which inhibition at 100 µM value belongs to CS(=O)(=O)c1nc(Cl)cc(NC(=O)c2ccccc2Oc2ccccc2)n1 [Compound 6i] ?
29.3

Which inhibition at 100 µM value belongs to CS(=O)(=O)c1ncc(Cl)c(C(=O)Nc2cccc(C(=O)c3ccccc3)c2)n1 [Compound 6a] ?
18.6

Which inhibition at 100 µM value belongs to CS(=O)(=O)c1ncc(Cl)c(C(=O)O)n1 [Compound 5c] ?
7.7

Which inhibition at 100 µM value belongs to CS(=O)(=O)c1ncc(Cl)c(C(=O)Nc2ccccc2Oc2ccccc2)n1 [Compound 6g] ?
18.3

Which inhibition at 100 µM value belongs to CS(=O)(=O)c1ncc(Cl)c(C(=O)Nc2cccc(Oc3ccccc3)c2)n1 [Compound 5a] ?
6.4

* * *

Biological target: cathepsin L (hCatL) (Homo sapiens)
Construct: purchased Calbiochem, Merck Millipore
Sequence (P07711 114-333): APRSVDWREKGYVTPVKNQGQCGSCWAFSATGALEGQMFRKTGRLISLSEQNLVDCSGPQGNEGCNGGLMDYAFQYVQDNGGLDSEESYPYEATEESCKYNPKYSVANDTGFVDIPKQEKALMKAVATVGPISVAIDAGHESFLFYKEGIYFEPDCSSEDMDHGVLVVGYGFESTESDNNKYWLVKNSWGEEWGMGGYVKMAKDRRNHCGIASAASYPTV
Assay: protease selectivity panel, fluorometric assay cathepsin L
Format: biochemical
Conditions: 100 µM inhibitor; read-out: CatL inhibition relative to the DMSO control
Note to self: values exactly at 20% are criterion met. So inhibition at 100 µM at or above 20% is criterion met, below is criterion not met.

INSERT INTO measurements (molecule, qualitative_label) VALUES
  ('CS(=O)(=O)c1ncc(Cl)c(C(=O)Nc2cccc(C(=O)c3ccccc3)c2)n1 [Compound 6a]', 'criterion not met'),
  ('CS(=O)(=O)c1nc(Cl)cc(NC(=O)c2ccccc2Oc2ccccc2)n1 [Compound 6i]', 'criterion met'),
  ('CS(=O)(=O)c1ncc(Cl)c(C(=O)O)n1 [Compound 5c]', 'criterion not met'),
  ('CS(=O)(=O)c1ncc(Cl)c(C(=O)Nc2ccccc2Oc2ccccc2)n1 [Compound 6g]', 'criterion met'),
  ('CS(=O)(=O)c1ncc(Br)c(C(=O)Nc2cccc(Oc3ccccc3)c2)n1 [Compound 7b]', 'criterion met');

Next, consider the following molecule.
Check if inhibition at 100 µM >= 20% (inclusive). Item: CS(=O)(=O)c1ncc(Cl)c(C(=O)Nc2cccc(Oc3ccccc3)c2)n1 [Compound 5a]
criterion not met

* * *

Molecular target: S. aureus SrtA (Staphylococcus aureus)
Construct: His tag (inferred from IMAC on a HisTrap column); made in house; host or cells: E. coli BL21 Gold (DE3)
Experiment: fluorometric enzyme assay of SrtA transpeptidation (Abz-LPETG-Dap(Dnp)-OH substrate)
Assay type: biochemical
Details: read-out: SrtA inhibition relative to the DMSO control
Note to self: values exactly at 40% are true. So inhibition at 100 µM at or above 40% is true, below is false.

INSERT INTO measurements (compound, qualitative_label) VALUES
  ('CS(=O)(=O)c1nc(Cl)cc(NC(=O)c2ccccc2Oc2ccccc2)n1 [Compound 6i]', 'false'),
  ('CS(=O)(=O)c1ncc(Cl)c(C(=O)Nc2cccc(C(=O)c3ccccc3)c2)n1 [Compound 6a]', 'true'),
  ('CS(=O)(=O)c1ncc(Br)c(C(=O)Nc2cccc(Oc3ccccc3)c2)n1 [Compound 7b]', 'true');

Check if inhibition at 100 µM >= 40% (inclusive). Item: CS(=O)(=O)c1ncc(Cl)c(C(=O)O)n1 [Compound 5c]
false

Check if inhibition at 100 µM >= 40% (inclusive). Item: CS(=O)(=O)c1ncc(Cl)c(C(=O)Nc2cccc(Oc3ccccc3)c2)n1 [Compound 5a]
true

Check if inhibition at 100 µM >= 40% (inclusive). Item: CS(=O)(=O)c1ncc(Cl)c(C(=O)Nc2ccccc2Oc2ccccc2)n1 [Compound 6g]
false
